Biological target: T1, human EphA7 (Homo sapiens, UniProt Q15375)
T1 construct: a protein of the extracellular region of each human Eph receptor fused with the SEAP protein and the His tag; made in house; host or cells: Expi293F cells (culture supernatant)
T1 sequence (Q15375 28-555 limits assumed): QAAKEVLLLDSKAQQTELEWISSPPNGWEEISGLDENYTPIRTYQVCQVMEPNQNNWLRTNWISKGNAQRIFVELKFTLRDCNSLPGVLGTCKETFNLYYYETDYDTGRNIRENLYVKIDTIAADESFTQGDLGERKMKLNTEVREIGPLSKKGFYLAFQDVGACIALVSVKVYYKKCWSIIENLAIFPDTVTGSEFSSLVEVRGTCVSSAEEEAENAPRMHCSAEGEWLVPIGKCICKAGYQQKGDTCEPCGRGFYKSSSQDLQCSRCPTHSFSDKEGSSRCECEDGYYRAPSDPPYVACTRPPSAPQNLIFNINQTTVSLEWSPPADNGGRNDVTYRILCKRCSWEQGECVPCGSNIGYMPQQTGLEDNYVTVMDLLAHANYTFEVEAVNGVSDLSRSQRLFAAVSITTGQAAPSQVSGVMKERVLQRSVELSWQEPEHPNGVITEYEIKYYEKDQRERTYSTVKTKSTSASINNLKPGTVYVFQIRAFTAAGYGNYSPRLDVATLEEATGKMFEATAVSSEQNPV
Experiment: Selectivity ELISA of humanized antibodies for human Eph receptor
Type: binding
Conditions: coated protein 1 nM
ATTRIBUTE_MEASURED: hEphA7-SEAP-: absorbance at 450 nm, percentage with respect to hEphA4-SEAP-His as 100% (%)
Your answer is read as %, so omit the unit and give the number.

[Q] Sample 82 (antibody, V domains shown, constant regions without entry; synthetic humanized antibody light chain variable region sequence; synthetic humanized antibody heavy chain variable region sequence) VL: DIQMTQSPSSLSASVGDRVTITCRASENIYRNLAWYQQKPGKAPKLLLYAATNLADGVPSRFSGSGSGTDYTLTISSLQSEDFATYYCQHFWGTPWTFGQGTKVEIK VH: QVQLVQSGSELKKPGASVKVSCKASGYTFTDYSMHWVRQAPGQGLKWMGWINTETGEPTYAQGFTGRFVFSLDTSVSTAYLQISSLKAEDTAVYYCARIPLYYYGSRYWYFDVWGQGTTVTVSS — what was its hEphA7-SEAP-: absorbance at 450 nm, percentage with respect to hEphA4-SEAP-His as 100%?
[A] 5.4
